Assay name: Cytotoxicity against MRC-5 fibroblasts
Particulars: human, MRC-5 fibroblasts, MRC-5 EC50, Table 1; cytotoxicity
Documented EC50 across a set of compounds
Measured metric: EC50 (µM)

> print(dat)
                           smiles.structure  measured.metric  comparative.sign  observed
1   Nc1ncnc2c1ccn2[C@@H]1O[C@H](CO)C[C@H]1O             EC50                 >        64
2  Nc1ncnc2c1c(-c1ccc(Cl)cc1Cl)cn2[C@@H]1O[C@H](CO)C[C@H]1O             EC50                 =      19.6
3  Nc1ncnc2c1c(C#Cc1ccccc1)cn2[C@@H]1O[C@H](CO)C[C@H]1O             EC50                 =       9.6
4  Nc1ncnc2c1c(CCc1ccccc1)cn2[C@@H]1O[C@H](CO)C[C@H]1O             EC50                 >        64
5  OC[C@@H]1C[C@@H](O)[C@H](n2cc(Br)c3cncnc32)O1             EC50                 =        21
6  Nc1ncnc2c1c(-c1cc(Cl)cc(Cl)c1)cn2[C@@H]1O[C@H](CO)C[C@H]1O             EC50                 =      30.2
7  Cc1ccc(-c2cn([C@@H]3O[C@H](CO)C[C@H]3O)c3ncnc(N)c23)cc1             EC50                 =        21
8  COc1cc(-c2cn([C@@H]3O[C@H](CO)C[C@H]3O)c3ncnc(N)c23)ccc1Cl             EC50                 =      17.2
9  Nc1ncnc2c1c(Br)cn2[C@@H]1O[C@H](CSCCO)C[C@H]1O             EC50                 =      26.5
